Data origin, for the record: ChEMBL document CHEMBL1781939

System: MCF7
test protocol: Cytotoxicity against human MCF7 cells after 48 hrs by MTT assay
Type: functional, cell-based
condition summary: MCF7, 48 h
pIC50: −log10 of the molar value.
test readout: pIC50

Items follow; give pIC50 for each.
1. C=C(CC[C@@H](C(=O)O)[C@H]1CC[C@H]2C3=CC[C@H]4[C@H](C)[C@@H](O[C@@H]5O[C@@H](C)[C@H](O)[C@@H](O)[C@@H]5O)[C@H](OC(C)=O)C[C@]4(C)[C@H]3CC[C@]12C)C(C)C [FRUTICOSIDE D]
2. C=C(CC[C@@H](C(=O)O)[C@H]1CC[C@H]2C3=CC[C@H]4[C@H](C)[C@@H](O[C@@H]5O[C@@H](C)[C@H](O)[C@@H](O)[C@@H]5O)[C@H](O)C[C@]4(C)[C@H]3CC[C@]12C)C(C)C [FRUTICOSIDE C]
3. C=C(CC[C@@H](CO)[C@H]1CC[C@H]2C3=CC[C@H]4[C@H](C)[C@@H](O)[C@H](O)C[C@]4(C)[C@H]3CC[C@]12C)C(C)C [FRUTICOSIDE A]
4. C=C(C)[C@@H]1CC[C@]2(C(=O)O)CC[C@]34C(=O)O[C@]5(CC[C@@H]3[C@@H]12)[C@@]4(C)CC[C@]12O[C@]51[C@@H](C)CC2(C)C
5. C=C(CC[C@@H](C(=O)O)[C@H]1CC[C@H]2C3=CC[C@H]4[C@H](C)[C@@H](O[C@@H]5O[C@@H](C)[C@H](O)[C@@H](O)[C@H]5O)[C@H](OC(C)=O)C[C@]4(C)[C@H]3CC[C@]12C)C(C)C [FRUTICOSIDE E]
6. C=C(CC[C@@H](C(=O)O)[C@H]1CC[C@H]2C3=CC[C@H]4[C@H](C)[C@@H](O)[C@H](O)C[C@]4(C)[C@H]3CC[C@]12C)C(C)C [FRUTICOSIDE B]

## Result
1: < 4.40; 2: < 4.40; 3: 4.81; 4: 4.90; 5: < 4.40; 6: < 4.40

----------
Would you mind telling me the reported pIC50 of each entry?
Tested on: HL-60
test protocol: Cytotoxicity against human HL60 cells after 48 hrs by MTT assay
Format: functional, cell-based
condition summary: HL-60, 48 h
pIC50: −log10 of the molar value.

C=C(CC[C@@H](C(=O)O)[C@H]1CC[C@H]2C3=CC[C@H]4[C@H](C)[C@@H](O[C@@H]5O[C@@H](C)[C@H](O)[C@@H](O)[C@@H]5O)[C@H](OC(C)=O)C[C@]4(C)[C@H]3CC[C@]12C)C(C)C [FRUTICOSIDE D]    < 4.40

For each of the compounds below, state pIC50.
1. C=C(C)[C@@H]1CC[C@]2(C(=O)O)CC[C@]3(C)[C@H](CC[C@@H]4[C@@]5(C)[C@H](C(=O)O)[C@H](O)C(C)(C)[C@@H]5CC[C@]43C)[C@@H]12 [EPICEANOTHIC ACID]
2. C=C(C)[C@@H]1CC[C@]2(C(=O)O)CC[C@]34C(=O)O[C@]5(CC[C@@H]3[C@@H]12)[C@@]4(C)CC[C@]12O[C@]51[C@@H](C)CC2(C)C
3. C=C(CC[C@@H](C(=O)O)[C@H]1CC[C@H]2C3=CC[C@H]4[C@H](C)[C@@H](O[C@@H]5O[C@@H](C)[C@H](O)[C@@H](O)[C@H]5O)[C@H](OC(C)=O)C[C@]4(C)[C@H]3CC[C@]12C)C(C)C [FRUTICOSIDE E]

## Result
1: < 4.40; 2: 4.99; 3: < 4.40

----------
Assignment: determine reported IC50 for the given molecules.
System: A549
test protocol: Cytotoxicity against human A549 cells after 48 hrs by MTT assay
Format: functional, cell-based
condition summary: A549, 48 h

Check out these entries, answers already filled in.
C/C=C(/CC[C@@H](C(=O)S)[C@H]1CC[C@H]2C3=CC[C@H]4[C@H](C)[C@@H](O[C@@H]5O[C@@H](C)[C@H](O)[C@@H](O)[C@@H]5O)CC[C@]4(C)[C@H]3CC[C@]12C)C(C)C [FRUTICOSIDE G]    > 40 µM
C=C(C)[C@@H]1CC[C@]2(C(=O)O)CC[C@]3(C)[C@H](CC[C@@H]4[C@@]5(C)[C@H](C(=O)O)[C@H](O)C(C)(C)[C@@H]5CC[C@]43C)[C@@H]12 [EPICEANOTHIC ACID]    > 40 µM
C=C(C)[C@@H]1CC[C@]2(C(=O)O)CC[C@]3(C)[C@H](CC[C@@H]4[C@@]5(C)[C@H](C=O)[C@H](O)C(C)(C)[C@@H]5CC[C@]43C)[C@@H]12    > 40 µM

Please look at the following molecule next.
## Task Provide measured IC50 value, entry: C=C(C)[C@@H]1CC[C@]2(C(=O)O)CC[C@]34C(=O)O[C@]5(CC[C@@H]3[C@@H]12)[C@@]4(C)CC[C@]12O[C@]51[C@@H](C)CC2(C)C
## Result 14.5 µM

----------
System: SW480
test protocol: Cytotoxicity against human SW480 cells after 48 hrs by MTT assay
Format: functional, cell-based
condition summary: SW480, 48 h
test readout: IC50

C=C(CC[C@@H](C(=O)O)[C@H]1CC[C@H]2C3=CC[C@H]4[C@H](C)[C@@H](O[C@@H]5O[C@@H](C)[C@H](O)[C@@H](O)[C@H]5O)[C@H](OC(C)=O)C[C@]4(C)[C@H]3CC[C@]12C)C(C)C [FRUTICOSIDE E]    > 40 µM

Then this compound:
## Task Answer with the recorded IC50 for the compound listed here: C/C=C(/CC[C@@H](C(=O)S)[C@H]1CC[C@H]2C3=CC[C@H]4[C@H](C)[C@@H](O[C@@H]5O[C@@H](C)[C@H](O)[C@@H](O)[C@@H]5O)CC[C@]4(C)[C@H]3CC[C@]12C)C(C)C [FRUTICOSIDE G]
## Result > 40 µM

----------
Tested on: MCF7
test protocol: Cytotoxicity against human MCF7 cells after 48 hrs by MTT assay
Type: functional, cell-based
condition summary: MCF7, 48 h
test readout: IC50

C=C(C)[C@@H]1CC[C@]2(C(=O)O)CC[C@]3(C)[C@H](CC[C@@H]4[C@@]5(C)[C@H](C=O)[C@H](O)C(C)(C)[C@@H]5CC[C@]43C)[C@@H]12    > 40 µM

Next, consider the following compound.
## Task Annotate the compound C/C=C(/CC[C@@H](C(=O)S)[C@H]1CC[C@H]2C3=CC[C@H]4[C@H](C)[C@@H](O[C@@H]5O[C@@H](C)[C@H](O)[C@@H](O)[C@@H]5O)CC[C@]4(C)[C@H]3CC[C@]12C)C(C)C [FRUTICOSIDE G] with its measured IC50.
## Result > 40 µM

----------
Test system: A549
test protocol: Cytotoxicity against human A549 cells after 48 hrs by MTT assay
Format: functional, cell-based
condition summary: A549, 48 h
pIC50: −log10 of the molar value.
For each of the compounds below, state its pIC50.

Record excerpt, results attached:
C=C(CC[C@@H](C(=O)O)[C@H]1CC[C@H]2C3=CC[C@H]4[C@H](C)[C@@H](O)[C@H](O)C[C@]4(C)[C@H]3CC[C@]12C)C(C)C [FRUTICOSIDE B]    < 4.40
C=C(CC[C@@H](C(=O)O)[C@H]1CC[C@H]2C3=CC[C@H]4[C@H](C)[C@@H](O[C@@H]5O[C@@H](C)[C@H](O)[C@@H](O)[C@@H]5O)[C@H](OC(C)=O)C[C@]4(C)[C@H]3CC[C@]12C)C(C)C [FRUTICOSIDE D]    < 4.40
C=C(CC[C@@H](C(=O)O)[C@H]1CC[C@H]2C3=CC[C@H]4[C@H](C)[C@@H](O[C@@H]5O[C@@H](C)[C@H](O)[C@@H](O)[C@H]5O)[C@H](OC(C)=O)C[C@]4(C)[C@H]3CC[C@]12C)C(C)C [FRUTICOSIDE E]    < 4.40
C=C(CC[C@@H](C(=O)S)[C@H]1CC[C@H]2C3=CC[C@H]4[C@H](C)[C@@H](O[C@@H]5O[C@@H](C)[C@H](O)[C@@H](O)[C@@H]5O)[C@H](OC(C)=O)C[C@]4(C)[C@H]3CC[C@]12C)C(C)C [FRUTICOSIDE F]    < 4.40
C=C(CC[C@@H](CO)[C@H]1CC[C@H]2C3=CC[C@H]4[C@H](C)[C@@H](O)[C@H](O)C[C@]4(C)[C@H]3CC[C@]12C)C(C)C [FRUTICOSIDE A]    4.80

Shift focus to the following entry.
## Task Quote pIC50 with test system A549 for C=C(CC[C@@H](C(=O)O)[C@H]1CC[C@H]2C3=CC[C@H]4[C@H](C)[C@@H](O[C@@H]5O[C@@H](C)[C@H](O)[C@@H](O)[C@@H]5O)[C@H](O)C[C@]4(C)[C@H]3CC[C@]12C)C(C)C [FRUTICOSIDE C]
## Result < 4.40
